Each recorded value in this set is attributed to ChEMBL document CHEMBL6134857.

# fold change (FC) per entry
Biological target: GABA-A receptor; alpha-1/beta-3/gamma-2 (Homo sapiens) (UniProt P14867+P18507+P28472)
Experiment: Effect on [3H]muscimol binding to full length human N-terminal flag-tagged alpha1-beta3-C-terminal 1D4-tagged gamma2 GABAA receptor extracted from Tetracycline-resistant HEK293 cell membrane assessed as fold change in [3H]muscimol binding at 300 uM incubated for 30 mins
Type: cell membranes
Settings: filed as modulator

# compound, fold change (FC)
measured = [
    ("CCCN1C(=O)NC(=O)C2(CCc3ccccc32)C1=O (stereo in doubt; 1j-2)", 0.05),
    ("CC1CC2(C(=O)NC(=O)NC2=O)c2ccccc21 (stereo in doubt; 11g-2)", 0.15),
    ("N#CSC1CC2(C(=O)NC(=O)NC2=O)c2ccccc21 (stereo in doubt; 1y-1)", 0.2),
    ("CCCN1C(=O)NC(=O)C2(CCc3ccccc32)C1=O (stereo in doubt; 1j-1)", 0.31),
    ("CC1CC2(C(=O)NC(=O)NC2=O)c2ccccc21 (stereo in doubt; 11g-1)", 0.06),
    ("CN1C(=O)NC(=O)[C@@]2(CCc3ccccc32)C1=O", 0.08),
    ("N=C1NC(=O)C2(CCc3ccc(Br)cc32)C(=O)N1 (configuration not stated)", 0.03),
    ("N#CSC1CC2(C(=O)NC(=O)NC2=O)c2ccccc21 (stereo in doubt; 1y-2)", 0.3),
    ("CC(C)c1ccc2c(c1)C1(CC2)C(=O)NC(=S)NC1=O", 0.54),
    ("COc1ccc2c(c1)C1(CC2)C(=O)NC(=O)N(C)C1=O (stereo in doubt; 7h-1)", 0.36),
    ("O=C1NC(=O)C2(CC(O)c3ccccc32)C(=O)N1 (stereo in doubt; 1t-2)", 0.02),
    ("N=C1NC(=O)C2(CCc3ccc(F)cc32)C(=O)N1 (configuration not stated)", -0.02),
]
